- System: CCRF-CEM
- method_description: NCI tumour cell line growth inhibition, 48 h
Activity calls are given as the source filed them. No stated cut-off is given here; in the data, active = GI50 up to about 1.1 µM and inactive = higher.
Parameter call: string, one of active, inactive

Lookup: Could you please tell me the result logged for `CC(C)(C)[Si](C)(C)OCCOCn1cc(F)c(=O)[nH]c1=O` in this assay?
Found: inactive

Lookup: Could you please tell me the result logged for `C[C@@H]1C[C@](O)([C@@H](C)Cl)C(=O)O[C@@H]2CCN3CC=C(COC(=O)[C@]1(C)O)[C@H]23` in this assay?
Found: inactive

Lookup: Could you please tell me the result logged for `CCN(CC)CCn1ncc2ccc3c(c(=O)c4cccnc4n3CCN(CC)CC)c21` in this assay?
Found: active

Lookup: Could you please tell me the result logged for `Cc1ccc(NCC(=O)N2CC(=O)Nc3ccccc32)c(C)c1` in this assay?
Found: inactive

Lookup: Could you please tell me the result logged for `Cn1c(=O)[nH]c2c(c1=O)C(=O)CN2` in this assay?
Found: inactive
